Tested on: PSMA-expressing LNCAP cancer xenografts
Assay: Biodistribution and tumor-to-background contrast ratios of 18F-labeled tracers
Assay type: in vivo, mouse (NODSCID 1L2RγKO male mice)
Settings: 1 h
ENDPOINT LABEL: Tumor:kidney contrast ratio

Example cases with answers are listed next.
MOLECULE	ASSAY TARGET	ENDPOINT LABEL	MEASURED VALUE
C[N+](C)(Cc1cn(CC(=O)NCCOCCOCCC(=O)N[C@@H](Cc2ccc3ccccc3c2)C(=O)NCCCC[C@H](NC(=O)N[C@@H](CCC(=O)O)C(=O)O)C(=O)O)nn1)C[B-](F)(F)[18F] [^18F-HTK01146]	PSMA-expressing LNCAP cancer xenografts	Tumor:kidney contrast ratio	0.28
O=C(O)CC[C@H](NC(=O)N[C@@H](CCCCNC(=O)c1ccc(Cn2cc(C[n+]3ccc([B-](F)(F)[18F])cc3)nn2)nc1)C(=O)O)C(=O)O [^18F-PSMA PyrBF3]	PSMA-expressing LNCAP cancer xenografts	Tumor:kidney contrast ratio	0.04

[P] C[N+](C)(Cc1cn(Cc2ccc(C(=O)NCCCC[C@H](NC(=O)N[C@@H](CCC(=O)O)C(=O)O)C(=O)O)cc2)nn1)C[B-](F)(F)[18F]
[Q] O=C(O)CC[C@H](NC(=O)N[C@@H](CCCCNC(=O)[C@H](Cc1ccc2ccccc2c1)NC(=O)[C@H]1CC[C@H](CNC(=O)Cn2cc(C[n+]3ccc([B-](F)(F)[18F])cc3)nn2)CC1)C(=O)O)C(=O)O [^18F-PSMA-617-PyrBF3]
Please choose the item with the lower Tumor:kidney contrast ratio value from this pair: P and Q Answer format: the label of the selected item.
P

---

Test system: PSMA-expressing LNCAP cancer xenografts
Test: Biodistribution and tumor-to-background contrast ratios of 18F-labeled tracers
Format: in vivo, mouse (NODSCID 1L2RγKO male mice)
Conditions: 1 h
ENDPOINT LABEL: Biodistribution Heart (% ID/g)

Here's what some known entries look like.
COMPOUND	ENDPOINT LABEL	MEASURE UNIT	MEASURED VALUE
O=C(O)CC[C@H](NC(=O)N[C@@H](CCCCNC(=O)c1ccc(Cn2cc(C[n+]3ccc([B-](F)(F)[18F])cc3)nn2)nc1)C(=O)O)C(=O)O [^18F-PSMA PyrBF3]	Biodistribution Heart	% ID/g	0.34
C[N+](C)(Cc1ccc(C(=O)NCCCC[C@H](NC(=O)N[C@@H](CCC(=O)O)C(=O)O)C(=O)O)cc1)C[B-](F)(F)[18F]	Biodistribution Heart	% ID/g	0.30
C[N+](C)(Cc1cn(Cc2ccc(C(=O)NCCCC[C@H](NC(=O)N[C@@H](CCC(=O)O)C(=O)O)C(=O)O)cc2)nn1)C[B-](F)(F)[18F]	Biodistribution Heart	% ID/g	0.33
C[N+](C)(Cc1cn(Cc2ccc(C(=O)NCCCC[C@H](NC(=O)N[C@@H](CCC(=O)O)C(=O)O)C(=O)O)cn2)nn1)C[B-](F)(F)[18F] [^18F-HTK01130]	Biodistribution Heart	% ID/g	0.21
C[N+](C)(Cc1cn(CC(=O)NC[C@H]2CC[C@H](C(=O)N[C@@H](Cc3ccc4ccccc4c3)C(=O)NCCCC[C@H](NC(=O)N[C@@H](CCC(=O)O)C(=O)O)C(=O)O)CC2)nn1)C[B-](F)(F)[18F] [^18F-HTK01157]	Biodistribution Heart	% ID/g	0.31

[A] O=C(O)CC[C@H](NC(=O)N[C@@H](CCCCNC(=O)[C@H](Cc1ccc2ccccc2c1)NC(=O)[C@H]1CC[C@H](CNC(=O)Cn2cc(C[n+]3ccc([B-](F)(F)[18F])cc3)nn2)CC1)C(=O)O)C(=O)O [^18F-PSMA-617-PyrBF3]
[B] C[N+](C)(Cc1cn(CC(=O)NCCOCCOCCC(=O)N[C@@H](Cc2ccc3ccccc3c2)C(=O)NCCCC[C@H](NC(=O)N[C@@H](CCC(=O)O)C(=O)O)C(=O)O)nn1)C[B-](F)(F)[18F] [^18F-HTK01146]
Recorded Biodistribution Heart values differ for A and B ; which one is higher? Write the label of whichever entry you select.
A
(A: 0.25 % ID/g, B: 0.07 % ID/g)
